// data source = ChEMBL document CHEMBL3758161

Tested on: MCF7
procedure.text: cells
assay.conditions: Homo sapiens, MCF7, 24 h
Description: Cytotoxicity against human MCF7 cells assessed as cell growth inhibition after 24 hrs by XTT assay
quantity.name: pIC50
Field pIC50 (float): negative decimal logarithm of the concentration in molar.

What pIC50 appears in the records for this compound with MCF7? CCCCCCCCCCCCN(CCO)C[C@H](O)COC[C@H]1O[C@@H]2OC(C)(C)O[C@@H]2[C@H]2OC(C)(C)O[C@H]21
3.74

Param item: CCCCCCCCCCNCCNCC(O)COC[C@H]1O[C@@H]2OC(C)(C)O[C@@H]2[C@H]2OC(C)(C)O[C@H]21 (mixture of isomers)
4.55

Try this compound too: CCCCCCCCCCCCN(CCO)C[C@@H](O)COC[C@H]1O[C@@H]2OC(C)(C)O[C@@H]2[C@H]2OC(C)(C)O[C@H]21
4.12

---

System: Staphylococcus epidermidis
procedure.text: Bactericidal activity against gram-positive Staphylococcus epidermidis ATCC 12228 after 24 hrs by broth dilution method
Assay type: functional
assay.conditions: ATCC 12228, 24 h
quantity.name: MBC (µM)
Give the number; µM is assumed, so skip it.

Could you share which MBC value was measured for CCCCCCCCCCCCCCNCCNCC(O)COC[C@H]1O[C@@H]2OC(C)(C)O[C@@H]2[C@H]2OC(C)(C)O[C@H]21 (mixture of isomers) ?
14

And for CCCCCCCCCCNCCNCC(O)COC[C@H]1O[C@@H]2OC(C)(C)O[C@@H]2[C@H]2OC(C)(C)O[C@H]21 (mixture of isomers) ?
8

---

Tested on: MCF7
procedure.text: cells
assay.conditions: Homo sapiens, MCF7, 24 h
quantity.name: pIC50
Please report pIC50 as the negative decimal logarithm of the molar concentration, giving only the number.

CC[C@@]1(O)C(=O)OCc2c1cc1n(c2=O)Cc2cc3ccccc3nc2-1 [CAMPTOTHECIN]; 5.22

Which pIC50 is listed for CCCCCCCCCCCCN(CCO)CC(O)COC[C@H]1O[C@@H]2OC(C)(C)O[C@@H]2[C@H]2OC(C)(C)O[C@H]21 (mixture of isomers) ?
3.98

Next compound up: COc1cc([C@@H]2c3cc4c(cc3[C@@H](O[C@@H]3O[C@@H]5CO[C@@H](C)O[C@H]5[C@H](O)[C@H]3O)[C@H]3COC(=O)[C@H]23)OCO4)cc(OC)c1O [ETOPOSIDE]
4.08

---

procedure.text: Lipophilicity, log P of the compound
Format: physicochemical
assay.conditions: octanol/water
# cutoff 3 applies to logP; >= gives satisfied, < gives not satisfied

Answered cases to consult:
CCCCCCCCCCCCNCCNCC(O)COC[C@H]1O[C@@H]2OC(C)(C)O[C@@H]2[C@H]2OC(C)(C)O[C@H]21 (mixture of isomers); satisfied
CCCCCCCCCCCCCCNCCN; satisfied
CCCCCCCCCCC(O)CNCCO (stereo not drawn); satisfied

Item CCCCCCCCCCNCCCN with logP of 3 or above?
not satisfied

Next record, please: CCCCCCCCCCN(CCO)CC(O)COC[C@H]1O[C@@H]2OC(C)(C)O[C@@H]2[C@H]2OC(C)(C)O[C@H]21 (mixture of isomers)
satisfied

Same thing, different compound: CCCCCCCCN(CCO)CC(O)COC[C@H]1O[C@@H]2OC(C)(C)O[C@@H]2[C@H]2OC(C)(C)O[C@H]21 (mixture of isomers)
not satisfied

Next compound up: CCCCCCCCC(O)CNCCO (stereo not drawn)
not satisfied

# repeat for CCCCCCCCCCCCCCN(CCO)CC(O)COC[C@H]1O[C@@H]2OC(C)(C)O[C@@H]2[C@H]2OC(C)(C)O[C@H]21 (mixture of isomers)
satisfied

---

Listing: zone of inhibition at 5000 µg/mL of selected compounds
Test system: Escherichia coli
procedure.text: Antibacterial activity against gram-negative Escherichia coli ATCC 11229 at 5 mg/ml incubated overnight by agar well diffusion method
Format: functional
assay.conditions: read-out: DIZ

Known zone of inhibition at 5000 µg/mL results, listed for orientation:
CCCCCCCCCCNCCCNCC(O)COC[C@H]1O[C@@H]2OC(C)(C)O[C@@H]2[C@H]2OC(C)(C)O[C@H]21 (mixture of isomers); 28 mm
CCCCCCCCCCNCCNCC(O)COC[C@H]1O[C@@H]2OC(C)(C)O[C@@H]2[C@H]2OC(C)(C)O[C@H]21 (mixture of isomers); 16 mm
NC(=O)N/N=C/c1ccc([N+](=O)[O-])o1; 35 mm

Recall the recorded zone of inhibition at 5000 µg/mL for CCCCCCCCCCCCCCNCCNCC(O)COC[C@H]1O[C@@H]2OC(C)(C)O[C@@H]2[C@H]2OC(C)(C)O[C@H]21 (mixture of isomers) with Escherichia coli and state it.
10 mm

Same lookup for CCCCCCCCCCCCNCCNCC(O)COC[C@H]1O[C@@H]2OC(C)(C)O[C@@H]2[C@H]2OC(C)(C)O[C@H]21 (mixture of isomers) , please.
10 mm

---

Listing: zone of inhibition at 5000 µg/mL of selected molecules
System: Staphylococcus aureus
procedure.text: Antibacterial activity against gram-positive Staphylococcus aureus ATCC 3591 at 5 mg/ml incubated overnight by agar well diffusion method
Assay type: functional
assay.conditions: read-out: DIZ
The response must be a number in mm with no trailing unit.

Would you kindly share the measured zone of inhibition at 5000 µg/mL for CCCCCCCCCCCCCCNCCNCC(O)COC[C@H]1O[C@@H]2OC(C)(C)O[C@@H]2[C@H]2OC(C)(C)O[C@H]21 (mixture of isomers) ?
22

Can you check CCCCCCCCCCNCCNCC(O)COC[C@H]1O[C@@H]2OC(C)(C)O[C@@H]2[C@H]2OC(C)(C)O[C@H]21 (mixture of isomers) next?
20

Same thing, different molecule: NC(=O)N/N=C/c1ccc([N+](=O)[O-])o1
31

What would you report for CCCCCCCCCCCCNCCNCC(O)COC[C@H]1O[C@@H]2OC(C)(C)O[C@@H]2[C@H]2OC(C)(C)O[C@H]21 (mixture of isomers) ?
30

---

Tested on: Staphylococcus aureus
procedure.text: Bactericidal activity against gram-positive Staphylococcus aureus ATCC 3591 after 24 hrs by broth dilution method
Type: functional
assay.conditions: ATCC 3591, 24 h
quantity.name: MBC (µM)
Return type: number; implicit unit µM.

Some entries whose results are on file:
CCCCCCCCC(O)CN(CCO)CC(O)COC[C@H]1O[C@@H]2OC(C)(C)O[C@@H]2[C@H]2OC(C)(C)O[C@H]21 (mixture of isomers); 240
CCCCCCCCCCCCCCN(CCO)CC(O)COC[C@H]1O[C@@H]2OC(C)(C)O[C@@H]2[C@H]2OC(C)(C)O[C@H]21 (mixture of isomers); 111

Dear colleague, I am looking for the recorded MBC of the following molecule: CCCCCCCCCCCCNCCNCC(O)COC[C@H]1O[C@@H]2OC(C)(C)O[C@@H]2[C@H]2OC(C)(C)O[C@H]21 (mixture of isomers)
15

---

Recorded measurements of MBC, one per entry
Tested on: Staphylococcus aureus
procedure.text: Bactericidal activity against gram-positive Staphylococcus aureus ATCC 3591 after 24 hrs by broth dilution method
Format: functional
assay.conditions: ATCC 3591, 24 h

Please review the entries below; each comes with its answer.
CCCCCCCCCCCCC(O)CN(CCO)CC(O)COC[C@H]1O[C@@H]2OC(C)(C)O[C@@H]2[C@H]2OC(C)(C)O[C@H]21 (mixture of isomers); > 868 µM
CCCCCCCCCCCCN(CCO)CC(O)COC[C@H]1O[C@@H]2OC(C)(C)O[C@@H]2[C@H]2OC(C)(C)O[C@H]21 (mixture of isomers); > 938 µM
CCCCCCCCCCCCNCCCNCC(O)COC[C@H]1O[C@@H]2OC(C)(C)O[C@@H]2[C@H]2OC(C)(C)O[C@H]21 (mixture of isomers); > 916 µM

Note: attention shifts to another entry.
So what MBC did CCCCCCCCCCC(O)CN(CCO)CC(O)COC[C@H]1O[C@@H]2OC(C)(C)O[C@@H]2[C@H]2OC(C)(C)O[C@H]21 (mixture of isomers) get with Staphylococcus aureus?
> 911 µM
